Provenance of the data: PubChem BioAssay (NCI)

# System: M14 melanoma
# Assay method text: NCI tumour cell line growth inhibition, 48 h
Readout label: TGI

Provide each entry's TGI from the list below.
1. COC(=O)CC(C#N)(OP1(=O)OC(c2ccccc2)C(C)N1C)c1ccccc1 (stereo unspecified)
2. COC1(OC)CC2C(=O)N(Cc3ccccc3)C1C(S(=O)(=O)c1ccccc1)C2S(=O)(=O)c1ccccc1 (stereo unspecified)
3. CC(O)CCC(=O)c1ccoc1 (stereo unspecified)
4. COC(=O)c1cc2c3c(ccc2[nH]1)N(C(=O)c1cc2cc(OC)c(OC)c(OC)c2[nH]1)CC3CCl (stereo unspecified)

Found:
> 100 µM
28.5 µM
> 10000 µM
> 100 µM
